Details: in ethanol, 307.15 K
attribute measured: solubility (mole fraction)

Q. Would you mind telling me what solubility (mole fraction) value was observed for OCc1cn(Cc2ccccc2)nn1 ?
A. 0.158

* * *

Details: in n-propanol, 307.15 K
attribute measured: solubility (mole fraction)
Format: numeric value only, no unit, no commentary.

Q. Would you mind telling me what solubility (mole fraction) value was observed for OCc1cn(Cc2ccccc2)nn1 ?
A. 0.113

* * *

Details: in n-propanol, 301.15 K
attribute measured: solubility (mole fraction)
Format: numeric value only, no unit, no commentary.

Q. Would you mind telling me what solubility (mole fraction) value was observed for OCc1cn(Cc2ccccc2)nn1 ?
A. 0.0742
